tested on: A549; test: Antiproliferative assay (resazurin, 72 h); assay type: cell-based, human; settings: Homo sapiens, A549, Table 1, mean ± SE
pIC50: −log10 of the molar value.
quantity.measured: pIC50

COc1cc(Nc2cc(C)nc3nc(-c4ccc(Cl)cc4)nn23)cc(OC)c1OC
< 5.00
COc1ccccc1CNc1nc2nc(C)cc(Nc3cc(OC)c(OC)c(OC)c3)n2n1
< 5.00
COc1cc(Nc2cc(C)nc3nc(NCCc4ccc(Cl)cc4)nn23)cc(OC)c1OC
< 5.00

----------
system: MDA-MB-231; experiment: Antiproliferative assay (resazurin, 72 h); type: cell-based, human; settings: Homo sapiens, MDA-MB-231; Table 2; mean ± SE; 72 h
pIC50: −log10 of the molar value.
// pIC50 lookup, one value per entry
quantity.measured: pIC50

Cc1ccc(CNc2nc3nc(C)cc(Nc4ccc(F)c(Cl)c4)n3n2)cc1
6.10
Cc1ccc(CNc2nc3nc(C)cc(Nc4cccc(Cl)c4)n3n2)cc1
5.56
Cc1cc(Nc2ccc(F)c(Cl)c2)n2nc(NCc3ccc4c(c3)OCO4)nc2n1
6.15

----------
quantity.measured: melting point

COc1cc(Nc2cc(C)nc3nc(NCc4ccccc4)nn23)cc(OC)c1OC
173 to 175 °C
Cc1cc(Nc2cccc(C(F)(F)F)c2)n2nc(NCc3ccc4c(c3)OCO4)nc2n1
180 to 182 °C
Cc1cc(Nc2ccc(C(F)(F)F)cc2)n2nc(NCc3ccc4c(c3)OCO4)nc2n1
158 to 160 °C
Cc1cc(Nc2ccc(Cl)c(Cl)c2)n2nc(NCc3ccc4c(c3)OCO4)nc2n1
166 to 168 °C
COc1ccc(CCNc2nc3nc(C)cc(Nc4cc(OC)c(OC)c(OC)c4)n3n2)cc1
214 to 216 °C
COc1cc(Nc2cc(C)nc3nc(-c4ccc(F)cc4)nn23)cc(OC)c1OC
253 °C
COc1cc(Nc2cc(C)nc3nc(Nc4ccc(F)cc4)nn23)cc(OC)c1OC
247 °C
COc1cc(Nc2cc(C)nc3nc(NCc4ccc(F)cc4)nn23)cc(OC)c1OC
156 to 158 °C
Cc1cc(Nc2cccc(Br)c2)n2nc(NCc3ccc4c(c3)OCO4)nc2n1
150 to 152 °C
Cc1cc(Nc2cccc(Cl)c2)n2nc(NCc3ccc(Cl)cc3)nc2n1
158 to 160 °C
Cc1cc(Nc2ccc(Br)cc2)n2nc(NCc3ccc4c(c3)OCO4)nc2n1
182 to 184 °C
COc1cc(Nc2cc(C)nc3nc(Nc4ccc(Cl)cc4)nn23)cc(OC)c1OC
251 °C
Cc1ccc(CNc2nc3nc(C)cc(Nc4ccc(F)c(Cl)c4)n3n2)cc1
178 to 180 °C
C#Cc1cccc(Nc2cc(C)nc3nc(NCc4ccc5c(c4)OCO5)nn23)c1
165 to 168 °C
COc1ccc(CNc2nc3nc(C)cc(Nc4cc(OC)c(OC)c(OC)c4)n3n2)cc1OC
194 to 196 °C
COc1cc(Nc2cc(C)nc3nc(NCc4cccc(Cl)c4)nn23)cc(OC)c1OC
136 to 138 °C
COc1cc(Nc2cc(C)nc3nc(Nc4ccccc4)nn23)cc(OC)c1OC
241 °C
Cc1cc(Nc2cccc(Cl)c2)n2nc(NCc3ccc4c(c3)OCO4)nc2n1
164 to 166 °C
Cc1cc(Nc2ccc(Cl)cc2)n2nc(NCc3ccc4c(c3)OCO4)nc2n1
156 to 158 °C
COc1ccc(CNc2nc3nc(C)cc(Nc4cc(OC)c(OC)c(OC)c4)n3n2)cc1
182 to 184 °C
COc1cc(Nc2cc(C)nc3nc(NCCc4ccc(F)cc4)nn23)cc(OC)c1OC
150 to 152 °C
Cc1cc(Nc2ccc(F)c(Cl)c2)n2nc(NCCCc3ccccc3)nc2n1
168 to 170 °C
COc1cc(Nc2cc(C)nc3nc(NCc4ccc(C(F)(F)F)cc4)nn23)cc(OC)c1OC
174 to 176 °C
Cc1ccc(CNc2nc3nc(C)cc(Nc4cccc(Cl)c4)n3n2)cc1
166 to 168 °C
COc1cc(Nc2cc(C)nc3nc(Nc4ccc(C)cc4)nn23)cc(OC)c1OC
234 °C
